Test system: PFKFB3+/- ht/LT/ras fibroblasts
testDetails: Growth inhibition of PFKFB3 haplo-insufficient transformed fibroblasts
Format: cell-based, mice
measurementSetup: Mus musculus, Fibroblast, 48 hours
measurementType: pIC50
Please report pIC50 as the negative decimal logarithm of the molar concentration, giving only the number.

Exam item: Give the measured pIC50 of O=C(/C=C/c1cccnc1)c1ccncc1 [Compound 1] .
Marked response: 4.59

* * *

Tested on: Jurkat
testDetails: Cancer cell proliferation, Alamar Blue assay 72 hours, Jurkat
Type: cell-based
measurementSetup: Homo sapiens, Jurkat, 72 h
measurementType: IC50 (µM)
Quick reminder: number only, in µM, skip the unit.

>  <compound>
Cc1ccc(C(=O)/C=C/c2cc(O)c3ccccc3n2)cc1 [ACT-PFK-073]

>  <unitSymbol>
µM

>  <IC50>
0.6

$$$$

Exam item: Name the recorded IC50 for O=C(/C=C/c1ccc2ccccc2n1)c1ccc(O)cc1 [ACT-PFK-087] .
Marked response: 3.7

Exam item: What measured IC50 goes with Cc1cccc2ccc(/C=C/C(=O)c3ccncc3)nc12 [ACT-PFK-141] ?
Marked response: 0.9

Exam item: # get_value(readout='IC50', item= O=C(/C=C/c1cnc2ccccc2c1)c1cccnc1 [ACT-PFK-048, 1-Pyridin-3-yl-3-quinolin-3-yl-propenone] )
Marked response: 17

src = patent US8557823B2
